Source listed as ChEMBL document CHEMBL3046582.

- Test system: Spodoptera littoralis
- Procedure text: Antifeedant activity against newly ecdysed fifth-instar larval stage of Spodoptera littoralis in compound-pretreated lettuce leaf disks assessed as consumed area of leaf disks at 10 ug/cm'2 measured at 30 min intervals for 4-5 hr post-drug exposure by choice test
- Type: functional
Binary label based on FR50 with cut-off 0.3: below gives class 1, not below gives class 0.

Here are 3 molecules together with their reported answers.
Q: hey, is FR50 for CC(=O)O[C@H]1[C@@H]2[C@@H](OC(=O)c3cccnc3)[C@@]3(OC2(C)C)[C@@](C)([C@@H](OC(=O)c2ccccc2)CC[C@]3(C)O)[C@@H]1OC(C)=O lower than 0.3 or not?
Ans: class 1

Q: I'd appreciate it if you could check whether CC(=O)O[C@H]1C[C@](C)(O)[C@]23OC(C)(C)[C@H]([C@@H](C(C)=O)[C@@H](OC(=O)c4ccccc4)[C@]2(OC(C)=O)[C@H]1OC(=O)c1ccccc1)[C@H]3OC(C)=O has FR50 smaller than 0.3.
Ans: class 0

Q: Determine if CC(=O)O[C@H]1C[C@](C)(O)[C@]23OC(C)(C)[C@H]([C@@H](C(C)=O)[C@@H](OC(=O)c4ccccc4)[C@]2(OC(C)=O)[C@H]1OC(C)=O)[C@H]3OC(C)=O shows FR50 strictly lower than 0.3.
Ans: class 1

Further cases:
Q: Hello, is FR50 of the following molecule strictly smaller than 0.3? CC(=O)O[C@H]1[C@@H]2[C@@H](O)[C@@]3(OC2(C)C)[C@](C)([C@H]1OC(=O)c1ccccc1)[C@@H](OC(=O)c1ccccc1)[C@H](OC(C)=O)[C@H](OC(C)=O)[C@]3(C)O
Ans: class 0

Q: Does the reported FR50 of CC(=O)O[C@@H]1[C@@H]2[C@@H](OC(C)=O)[C@]3(OC2(C)C)C(C)C[C@H](C(C)=O)[C@H](OC(C)=O)[C@@]3(O)[C@H]1OC(=O)c1ccccc1 (stereo not given in full) stay below 0.3?
Ans: class 1
